experiment: chemical genetic growth profiling, strain panel (AID 1159580);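 note: tested at 20 µM; growth read once vehicle control cultures reached saturation at 30 °C; lower values mean less growth of the strain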; conditions: S. cerevisiae deletion strains, growth OD, locus YJR043C, strain POL32
Out of some 5,500 compounds screened, about 2,000 (36%) were called active. Another 18% or so got no clear call; they are omitted. Cut-off read from the data, not from the text of the source: active = normalized growth mostly below about 0.91 (no sharp cut-off); inconclusive = no clear call, values can overlap the other calls; inactive = mostly above about 0.92. The list shows a part of the results.
Could you please pick one outcome from this set? active, inactive

>  <COMPOUND>
COc1ccccc1OCC(O)COC(N)=O (centres undefined)

>  <CLASS>
inactive

$$$$

Assay result, entry `CN1CCN(C2=Nc3cc(Cl)ccc3Nc3ccccc32)CC1` — outcome? inactive

Please answer likewise for ClC1C(Cl)C(Cl)C(Cl)C(Cl)C1Cl (centres undefined) inactive

Repeat for the following compound: `O=S(=O)(c1ccc(Cl)cc1)N1CCN(Cc2ccccc2)CC1` inactive

Same for `Cc1onc(-c2c(Cl)cccc2Cl)c1C(=O)N1CCN(c2ncnc3scc(-c4ccccc4)c23)CC1` inactive

Do the same for `O=C1c2cccc(O)c2C(=O)c2c(O)cccc21` please active

Repeat for the following compound: `CC(=O)c1ccc(Sc2ccccn2)c([N+](=O)[O-])c1` inactive
